# Tested on: human Factor 7 mRNA
# PROCEDURE DETAILS: Dose-dependent antisense inhibition of human Factor 7 in HepB3 cells, electroporation
# Format: cell-based
# RUN CONDITIONS: 12.5 μM, approx. 16 hours (Table 15, Example 7)
Strand notation (5' to 3'): a small letter for the sugar, then the base; units joined by * are phosphorothioate-linked, units joined directly phosphodiester-linked; [ ] holds rarer units or linkages, { } end groups; capitals alone tell only the bases. e = 2'-O-(2-methoxyethyl) (MOE); [5mC] = 5-methylcytosine; d = 2'-deoxy (DNA)
ATTRIBUTE MEASURED: percent inhibition of Factor 7 mRNA, relative to untreated control cells (%)
Express it in %; write the number only.

Observe how each entry below is paired with its result.
Param item = 422296 (antisense e[5mC]*e[5mC]*dG*dA*dG*dT*dT*d[5mC]*dT*dG*d[5mC]*dA*dG*dG*dA*eG*e[5mC]*eG*eG*e[5mC]) [compound 422296] ; retrieve measured percent inhibition of Factor 7 mRNA, relative to untreated control cells. 56

Next up: 422087 (antisense e[5mC]*eA*eT*eG*e[5mC]*dA*dT*dG*dG*dT*dG*dA*dT*dG*d[5mC]*eT*eT*e[5mC]*eT*eG) [compound 422087] 48

What about this substance? 422295 (antisense e[5mC]*eG*dA*dG*dT*dT*d[5mC]*dT*dG*d[5mC]*dA*dG*dG*dA*dG*e[5mC]*eG*eG*e[5mC]*e[5mC]) [compound 422295] 37

Next:
I would be grateful if you could share the reported percent inhibition of Factor 7 mRNA, relative to untreated control cells for 422292 (antisense eG*eT*dT*d[5mC]*dT*dG*d[5mC]*dA*dG*dG*dA*dG*d[5mC]*dG*dG*e[5mC]*e[5mC]*eT*eA*eA) [compound 422292] . 47

Also 422229 (antisense eA*eT*dG*d[5mC]*dA*dT*dG*dG*dT*dG*dA*dT*dG*d[5mC]*dT*eT*e[5mC]*eT*eG*eA) [compound 422229] ? 33

Now consider 422217 (antisense eG*eA*eG*dT*dT*d[5mC]*dT*dG*d[5mC]*dA*dG*dG*dA*dG*d[5mC]*dG*dG*e[5mC]*e[5mC]*eT) [compound 422217] and answer again. 29

Same question for 407939 (antisense eT*eG*e[5mC]*eA*eG*d[5mC]*d[5mC]*d[5mC]*dG*dG*d[5mC]*dA*d[5mC]*d[5mC]*d[5mC]*eA*eG*e[5mC]*eG*eA) [compound 407939] please. 42

Repeat with 422140 (antisense eG*eT*eT*e[5mC]*eT*dG*d[5mC]*dA*dG*dG*dA*dG*d[5mC]*dG*dG*e[5mC]*e[5mC]*eT*eA*eA) [compound 422140] 51

How about this substance: 422152 (antisense eA*eT*eG*d[5mC]*dA*dT*dG*dG*dT*dG*dA*dT*dG*d[5mC]*dT*dT*d[5mC]*eT*eG*eA) [compound 422152] 32

Also, 422096 (antisense eA*eG*eA*e[5mC]*eA*dA*dT*dG*dG*dT*d[5mC]*dA*dG*dG*dG*e[5mC]*eT*eG*eG*eT) [compound 422096] please. 46

For 422215 (antisense eG*eT*eT*d[5mC]*dT*dG*d[5mC]*dA*dG*dG*dA*dG*d[5mC]*dG*dG*d[5mC]*d[5mC]*eT*eA*eA) [compound 422215] then? 31

// same read-out, input: 422142 (antisense eG*eA*eG*eT*eT*d[5mC]*dT*dG*d[5mC]*dA*dG*dG*dA*dG*d[5mC]*eG*eG*e[5mC]*e[5mC]*eT) [compound 422142] 63
